# Tested on: HPV-16
# EXPERIMENTAL PROTOCOL: qPCR sensitivity against HPV-HNSCC tumor samples diluted among 10 ng normal human DNA
# RECORDED CONDITIONS: Sample # 19
REPORTED PROPERTY: Threshold of tumor cell numbers for HPV-16 detection (tumor cells)

MOLECULE | UNIT TAG | READOUT VALUE
HR E5L2-4: primer/probe set for junction between E5 and L2, SEQ ID NO: 55-57 (same as SEQ ID NO: 4-6) (nucleic acid, chemistry not given here) DNA 1: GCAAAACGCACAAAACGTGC DNA 2: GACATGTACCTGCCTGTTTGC DNA 3: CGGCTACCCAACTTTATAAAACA | tumor cells | 1.2
E7: previously designed (historical) HPV-16 E7 primers and Taqman probe, SEQ ID NO: 10-12; part of CLIA test (nucleic acid, Taqman probe, labels not given here, part of CLIA test) DNA 1: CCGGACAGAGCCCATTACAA DNA 2: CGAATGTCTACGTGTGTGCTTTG DNA 3: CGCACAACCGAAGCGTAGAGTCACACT | tumor cells | 1.2
E6: previously designed (historical) HPV-16 E6 primers and Taqman probe, SEQ ID NO: 7-9, positive control (nucleic acid, Taqman probe, labels not given here) DNA 1: TCAGGACCCACAGGAGCG DNA 2: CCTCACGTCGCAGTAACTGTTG DNA 3: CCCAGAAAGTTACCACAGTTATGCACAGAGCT | tumor cells | 1.2
BR E1-6: HPV-16 E1 region primer/probe set, SEQ ID NO: 43-45 (nucleic acid, chemistry not given here) DNA 1: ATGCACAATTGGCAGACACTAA DNA 2: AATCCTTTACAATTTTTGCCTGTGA DNA 3: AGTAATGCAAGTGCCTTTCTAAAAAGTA | tumor cells | 1.2
BR E1-4: HPV-16 E1 region primer/probe set, SEQ ID NO: 37-39 (nucleic acid, chemistry not given here) DNA 1: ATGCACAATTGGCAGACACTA DNA 2: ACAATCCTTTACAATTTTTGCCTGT DNA 3: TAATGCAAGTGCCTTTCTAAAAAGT | tumor cells | 0.3
BR E6-1: HPV-16 E6 region (172-373 bp) primer/probe set, SEQ ID NO: 58-60 (nucleic acid, chemistry not given here) DNA 1: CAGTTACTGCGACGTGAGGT DNA 2: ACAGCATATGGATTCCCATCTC DNA 3: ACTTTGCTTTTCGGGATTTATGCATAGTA | tumor cells | 6.0
BR E1-5: HPV-16 E1 region primer/probe set, SEQ ID NO: 40-42 (same as SEQ ID NO: 1-3) (nucleic acid, chemistry not given here) DNA 1: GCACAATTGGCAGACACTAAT DNA 2: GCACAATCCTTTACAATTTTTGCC DNA 3: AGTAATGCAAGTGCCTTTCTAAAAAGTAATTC | tumor cells | 1.2
